These entries and their values trace back to patent US11530186B2.

# Tested system: β-catenin/Tcf protein-protein interaction (Homo sapiens)
# Construct: Wild-type β-catenin (residues 138-781) were cloned into a pET-28b vector; 6×histidine (C); made in house; host or cells: E. coli BL21 DE3
# Experiment description: FP competitive inhibition assay
# Type: binding
# Measurement parameters: Assay 2, mean ± SD (n = 3), read-out: Ki ± SD, Assay 2
Attribute measured: Ki (µM)

Field: example entries. Status: answers known.
{"columns": ["Compound", "Ki, µM"],
 "data": [
  ["O=C(O)c1ccc2c(c1)c(CCC1CCOCC1)c(-c1ccsc1)n2CCc1nn[nH]n1", 1.2],
  ["O=C(NCc1ccon1)c1ccc2c(c1)c(CCC1CCCCC1)c(-c1ccsc1)n2CCc1nn[nH]n1", 15],
  ["COc1ccc2sc(CCc3c(CCc4ccc(Cl)cc4)c4cc(C(=O)NCc5csc(C)n5)ccc4n3CCc3nn[nH]n3)nc2c1", 4.7]
]}

a. O=C(O)c1ccc2c(c1)c(CCc1ccc(Cl)cc1)c(CCc1nc3ccccc3[nH]1)n2CCc1nn[nH]n1
b. O=C(O)c1ccc2c(c1)c(CCc1ccc(Cl)cc1)cn2CCc1nn[nH]n1
c. COc1ccc2sc(CCc3c(CCc4ccc(Cl)cc4)c4cc(C(=O)NCC(O)CO)ccc4n3CCc3nn[nH]n3)nc2c1 (stereo not shown)
Number of compounds to sort: 3. Sort criterion: Ki, ascending. Form field (ranking): labels in requested order.
a, b, c
(a: 5.2 µM, b: 19 µM, c: 32 µM)

---

# Tested system: β-catenin/Tcf4 (Homo sapiens)
# Construct: Wild-type β-catenin (residues 138-781) were cloned into a pET-28b vector; 6×histidine (C); made in house; host or cells: E. coli BL21 DE3
# Sequence (P35222 138-781): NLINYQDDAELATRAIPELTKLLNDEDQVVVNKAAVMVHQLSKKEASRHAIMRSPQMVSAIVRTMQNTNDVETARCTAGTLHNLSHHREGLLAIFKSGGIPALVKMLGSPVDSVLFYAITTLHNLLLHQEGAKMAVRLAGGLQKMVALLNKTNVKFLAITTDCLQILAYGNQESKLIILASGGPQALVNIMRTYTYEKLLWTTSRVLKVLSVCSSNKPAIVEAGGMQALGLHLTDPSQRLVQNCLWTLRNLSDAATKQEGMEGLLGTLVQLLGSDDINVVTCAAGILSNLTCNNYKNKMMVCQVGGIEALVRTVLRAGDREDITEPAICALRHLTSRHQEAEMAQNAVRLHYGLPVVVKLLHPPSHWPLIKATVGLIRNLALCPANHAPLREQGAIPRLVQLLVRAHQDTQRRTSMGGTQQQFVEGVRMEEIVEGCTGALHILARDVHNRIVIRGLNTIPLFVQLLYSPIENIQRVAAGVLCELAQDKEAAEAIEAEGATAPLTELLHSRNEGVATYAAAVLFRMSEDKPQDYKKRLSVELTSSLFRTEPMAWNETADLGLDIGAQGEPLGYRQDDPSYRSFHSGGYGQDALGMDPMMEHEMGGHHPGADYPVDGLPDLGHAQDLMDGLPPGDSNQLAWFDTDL
# Experiment description: FP selectivity assay, β-catenin/Tcf assay
# Type: binding
# Measurement parameters: mean ± SD (n = 3)
Attribute measured: Ki (nM)
Enter your answer as a number in nM; do not include the unit.

# query: Ki of entry O=C(O)c1ccc2c(c1)c(CCc1ccc(Cl)cc1)c(CCc1nc3ccccc3s1)n2CCc1nn[nH]n1 [Compound 27]
930

---

# Tested system: β-catenin/Tcf protein-protein interaction (Homo sapiens, UniProt P35222)
# Construct: Wild-type β-catenin (residues 138-781) were cloned into a pET-28b vector; 6×histidine (C); made in house; host or cells: E. coli BL21 DE3
# Sequence (P35222 138-781): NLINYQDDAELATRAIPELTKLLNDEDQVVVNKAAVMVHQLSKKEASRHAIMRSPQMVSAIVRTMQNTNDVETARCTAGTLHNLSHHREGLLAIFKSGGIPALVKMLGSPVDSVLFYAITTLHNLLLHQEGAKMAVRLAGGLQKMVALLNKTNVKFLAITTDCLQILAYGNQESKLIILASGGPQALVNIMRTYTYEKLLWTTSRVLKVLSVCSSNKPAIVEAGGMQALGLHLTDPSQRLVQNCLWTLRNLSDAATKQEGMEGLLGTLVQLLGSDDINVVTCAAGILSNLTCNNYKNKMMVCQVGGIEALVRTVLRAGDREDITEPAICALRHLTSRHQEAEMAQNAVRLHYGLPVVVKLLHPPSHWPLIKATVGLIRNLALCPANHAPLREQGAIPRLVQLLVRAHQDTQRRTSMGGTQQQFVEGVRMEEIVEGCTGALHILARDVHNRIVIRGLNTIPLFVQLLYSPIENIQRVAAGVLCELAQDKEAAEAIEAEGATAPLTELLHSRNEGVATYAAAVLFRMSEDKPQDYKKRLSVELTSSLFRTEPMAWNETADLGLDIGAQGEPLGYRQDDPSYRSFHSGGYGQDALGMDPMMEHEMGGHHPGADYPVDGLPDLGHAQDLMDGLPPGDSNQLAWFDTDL
# Experiment description: FP competitive inhibition assay
# Format: binding
# Measurement parameters: Assay 1, mean ± SD (n = 3), read-out: Ki ± SD, Assay 1
pKi: −log10 of the molar value.
Attribute measured: pKi

I. O=C(O)CCn1cc(CCc2ccc(Cl)cc2)c2cc(C(=O)O)ccc21
II. COc1ccc2sc(CCc3c(CCc4ccc(Cl)cc4)c4cc(C(=O)NCc5cccc(Cl)c5)ccc4n3CCc3nn[nH]n3)nc2c1
Between the two listed entries I and II , which has its pKi at the higher number? Answer by stating the label of the chosen item.
II
(II: 5.57, I: 4.03)

P. O=C(O)c1ccc2c(c1)c(CCc1ccc(OC(F)(F)F)cc1)cn2CCc1nn[nH]n1
Q. Cc1cn(CCc2nn[nH]n2)c2ccccc12
R. Cc1ccc(CCc2c(-c3csc(C(F)F)c3)n(CCc3nn[nH]n3)c3ccc(C(=O)O)cc23)cc1
S. O=C(O)c1ccc2c(c1)c(CCc1ccccc1)c(CCc1nc3ccccc3s1)n2CCc1nn[nH]n1
Number of compounds to sort: 4. Sort criterion: pKi, ascending. Form field (ranking): labels in requested order.
Q, P, S, R
(Q: 3.46, P: 4.66, S: 4.96, R: 6.04)

a. O=C(O)c1ccc2c(c1)c(CCc1nccs1)cn2CCc1nn[nH]n1
b. COc1ccc2sc(CCc3c(CCc4ccc(Cl)cc4)c4cc(C(=O)NCc5ccncc5)ccc4n3CCc3nn[nH]n3)nc2c1
c. COc1ccc2sc(CCc3c(CCc4ccc(Cl)cc4)c4cc(C(=O)NCC5CCCCC5)ccc4n3CCc3nn[nH]n3)nc2c1
# desc sort on pKi across 3 compounds Form field (ranking): labels in requested order.
c, b, a

P. O=C(O)c1ccc2c(c1)c(CCc1ccc(Cl)cc1)c(CCc1nc3ccccc3s1)n2CCc1nn[nH]n1
Q. O=C(O)c1ccc2c(c1)c(CCC1CCOCC1)c(-c1ccsc1)n2CCc1nn[nH]n1
Between the two listed entries P and Q , which has its pKi at the higher number? Answer by stating the label of the chosen item.
Q

---

# Tested system: β-catenin/Tcf protein-protein interaction (Homo sapiens)
# Construct: Wild-type β-catenin (residues 138-781) were cloned into a pET-28b vector; 6×histidine (C); made in house; host or cells: E. coli BL21 DE3
# Experiment description: FP competitive inhibition assay
# Format: binding
# Measurement parameters: Assay 1, mean ± SD (n = 3), read-out: Ki ± SD, Assay 1
pKi: −log10 of the molar value.
Attribute measured: pKi

Field: example entries. Status: answers known.
{"columns": ["Chemical smiles", "Experimental value"],
 "data": [
  ["Cc1ccc(CCc2c(-c3ccsc3)n(CCc3nn[nH]n3)c3ccc(C(=O)NCc4ccon4)cc23)cc1", 5.14],
  ["COc1ccc2nc(C#Cc3c(CCC4CCOCC4)c4cc(C(=O)O)ccc4n3CCc3nn[nH]n3)sc2c1", 5.38],
  ["COc1ccc2sc(CCc3c(CCc4ccc(Cl)cc4)c4cc(C(=O)NCc5ccc(Cl)cc5)ccc4n3CCc3nn[nH]n3)nc2c1", 5.62],
  ["O=C(O)CCn1c(CCc2nc3ccccc3s2)c(CCc2ccc(Cl)cc2)c2cc(C(=O)O)ccc21", 5.10],
  ["O=C(NCc1ccc(Cl)cc1)c1ccc2c(c1)c(CCc1ccc(F)cc1)c(CCc1nc3ccccc3s1)n2CCc1nn[nH]n1", 6.01]
]}

1. Cc1ccc(CCc2c(-c3ccncc3)n(CCc3nn[nH]n3)c3ccc(C(=O)O)cc23)cc1
2. Cc1c(C)n(CCc2nn[nH]n2)c2ccccc12
Field: lower recorded pKi (choose 1 or 2 ) Answer by stating the label of the chosen item.
2

1. Cc1ccc(CCc2c(-c3cc[nH]c3)n(CCc3nn[nH]n3)c3ccc(C(=O)O)cc23)cc1
2. Cc1ccc(CCc2cn(CCc3nn[nH]n3)c3ccc(C(=O)O)cc23)nc1
3. O=C(O)c1ccc2c(c1)c(CCc1ccccc1)cn2CCc1nn[nH]n1
4. COc1ccc2sc(CCc3c(CCc4ccc(Cl)cc4)c4cc(C(=O)NCc5ccon5)ccc4n3CCc3nn[nH]n3)nc2c1
# desc sort on pKi across 4 compounds Form field (ranking): labels in requested order.
1, 4, 2, 3
(1: 5.92, 4: 5.51, 2: 4.49, 3: 4.21)

I. O=C(O)c1ccc2c(c1)c(CCc1ccc(-c3ccccc3)cc1)cn2CCc1nn[nH]n1
II. O=C(O)CCn1c(CCc2nc3ccccc3s2)c(CCc2ccccc2)c2cc(C(=O)O)ccc21
Field: lower recorded pKi (choose I or II ) Answer by stating the label of the chosen item.
II
